tested on: Isolated, perfused guinea pig heart; assay: Isolated, perfused guinea pig heart according to Langendorff (Test B); conditions: Cavia porcellus, infusion, 10^-10 to 10^-6 M, pH 7.3, 37° C., read-out: CBF IC50
OUTCOME_MEASURE: pIC50
The meaning of pIC50 here: minus log10 of the concentration in molar units.

Could you share which pIC50 value was measured for COCC(=O)O[C@]1(CC[N+](C)([O-])CCCc2nc3ccccc3[nH]2)CCc2cc(F)ccc2[C@@H]1C(C)C (stereo partly drawn) ?
5.00

Value lookup for pIC50; key = COCC(=O)O[C@]1(CCN(C)Cc2ccc(Cc3nc4ccccc4[nH]3)cc2)CCc2cc(F)ccc2[C@@H]1C(C)C
7.66

Form field: reported pIC50 of CCCCNC(=O)O[C@]1(CCN(C)CCCCCc2nc3ccccc3n2C)CCc2cc(F)ccc2[C@@H]1C(C)C
7.77

Need pIC50 of CC(C)[C@H]1c2ccc(F)cc2CC[C@]1(O)CCN(C)CCCCCCCc1nc2ccccc2[nH]1 , thanks.
7.30

Param item = CCCCCCCCCCCCn1c(CCCCCCCN(C)CC[C@@]2(OC(=O)COC)CCc3cc(F)ccc3[C@@H]2C(C)C)nc2ccccc21 ; retrieve measured pIC50.
7.55

# lookup: pIC50 of COCC(=O)O[C@]1(CCN(C)CCCCCc2nc3ccccc3s2)CCc2cc(F)ccc2[C@@H]1C(C)C
8.62

Bench note: what pIC50 did COCC(=O)O[C@]1(CCN(C)CCCCCCn2c(=O)[nH]c3ccccc32)CCc2cc(F)ccc2[C@@H]1C(C)C show?
8.96

Need pIC50, item COCC(=O)O[C@]1(CCN(C)CCCc2nc3ccccc3[nH]2)CCc2cc(F)ccc2[C@@H]1C(C)C
7.33

Given COCC(=O)O[C@]1(CCN(C)CCCc2nc(-c3ccccc3)c(-c3ccccc3)n2C)CCc2cc(F)ccc2[C@@H]1C(C)C , state its recorded pIC50.
8.74
